experiment: Compound 1 PK dosed Days 1-3 with etoposide and carboplatin; type: in vivo, human; conditions: human, plasma, intravenous, 200 mg/m2, 200 mg/m^2 with Etoposide and Carboplatin, Day 1, individual subjects; read-out: t½ (converted)
assayReadout: half-life (h)

{"smilesNotation": "CN1CCN(c2ccc(Nc3ncc4cc5n(c4n3)C3(CCCCC3)CNC5=O)nc2)CC1", "assayReadout": "half-life", "result": 6.29}

====

assay: 14-day oral gavage toxicokinetic study in rats; assay type: in vivo; conditions: female, rat, plasma, po, 5 mg/kg, Individual Compound 1 Plasma Concentration, rats, daily oral 5 mg/kg, Day 1, Female, 2 h

{"smilesNotation": "CN1CCN(c2ccc(Nc3ncc4cc5n(c4n3)C3(CCCCC3)CNC5=O)nc2)CC1", "concentration at 2 h [ng/mL]": 533}

====

assay: Compound 1 PK dosed Days 1-3 with etoposide and carboplatin; assay type: in vivo, human; details: human, plasma, intravenous, Day 1; 4 subjects; mean; read-out: concentration at 24.5 hours after the start of infusion, averaging
assayReadout: concentration at 24.5 h (ng/mL)

{"smilesNotation": "CN1CCN(c2ccc(Nc3ncc4cc5n(c4n3)C3(CCCCC3)CNC5=O)nc2)CC1", "result": 20}

====

Test: 14-day oral gavage toxicokinetic study in rats
Type: in vivo
Details: male, rat, plasma, po, 5 mg/kg, Individual Compound 1 Plasma Concentration, rats, daily oral 5 mg/kg, Day 14, Male, 1 h
Method: Plasma was obtained from blood samples collected from rats in a composite sampling scheme, with 3 samples collected per sex, per dose, at each target collection time, as illustrated in Table 21 to Table 25. […] The following parameters were determined: […] A value of 0 ng/mL was assigned to all values below the lower limit of quantitation (BLQ, <10.0 ng/mL). […] CL: Clearance (L/h/kg), calculated as the dose divided by AUC(0-t). […] Cmax/Dose: Normalized Cmax, calculated as Cmax divided by total dose. […]

{"compound": "CN1CCN(c2ccc(Nc3ncc4cc5n(c4n3)C3(CCCCC3)CNC5=O)nc2)CC1 [Compound 1]", "concentration at 1 h / ng/mL": 254}

====

test: Single escalating dose IV infusion pharmacokinetics in healthy volunteers (noncompartmental); assay type: in vivo, human; conditions: both sexes, human, plasma, iv, 24 mg/m^2, Compound 1 Concentration, Cohort 3, 24 mg/m^2 IV; Time 8.5 h; r7-9=Subjects 1-3,r11=Mean,r13=Min,r14=Median,r15=Max,r17=Geometric Mean

{"smilesNotation": "CN1CCN(c2ccc(Nc3ncc4cc5n(c4n3)C3(CCCCC3)CNC5=O)nc2)CC1", "unitsLabel": "ng/mL", "concentration at 8.5 h": 4.91}

====

Assay: 14-day oral gavage toxicokinetic study in rats
Format: in vivo
Settings: male, rat, plasma, po, 30 mg/kg, oral 30 mg/kg, Study Day 14, Male
Method: Plasma was obtained from blood samples collected from rats in a composite sampling scheme, with 3 samples collected per sex, per dose, at each target collection time, as illustrated in Table 21 to Table 25. […] The following parameters were determined: […] A value of 0 ng/mL was assigned to all values below the lower limit of quantitation (BLQ, <10.0 ng/mL). […] CL: Clearance (L/h/kg), calculated as the dose divided by AUC(0-t). […] Cmax/Dose: Normalized Cmax, calculated as Cmax divided by total dose. […]

{"smilesNotation": "CN1CCN(c2ccc(Nc3ncc4cc5n(c4n3)C3(CCCCC3)CNC5=O)nc2)CC1", "Cmax [ng/mL]": 2030}

====

experiment: 14-day oral gavage toxicokinetic study in rats; type: in vivo; settings: both sexes, rat, plasma, po, 5 mg/kg, Mean Compound 1 Plasma Concentration, rats, oral 5 mg/kg, Day 14, 0.5 h, Overall

{"smilesNotation": "CN1CCN(c2ccc(Nc3ncc4cc5n(c4n3)C3(CCCCC3)CNC5=O)nc2)CC1", "unitsLabel": "ng/mL", "concentration at 0.5 h": 348}

====

test: Single escalating dose IV infusion pharmacokinetics in healthy volunteers (noncompartmental); format: in vivo, human; conditions: both, human, plasma, intravenous, […]2, Cohort 7, […]^2, N = 12; min-max; read-out: tmax

{"smilesNotation": "CN1CCN(c2ccc(Nc3ncc4cc5n(c4n3)C3(CCCCC3)CNC5=O)nc2)CC1", "Tmax": "15 to 28.8 min"}

====

test: 14-day oral gavage toxicokinetic study in rats; format: in vivo; conditions: female, rat, plasma, po, 30 mg/kg, Mean Compound 1 Plasma Concentration, rats, oral 30 mg/kg, Day 1, 2 h, Female
assayReadout: concentration at 2 h (ng/mL)

{"smilesNotation": "CN1CCN(c2ccc(Nc3ncc4cc5n(c4n3)C3(CCCCC3)CNC5=O)nc2)CC1", "assayReadout": "concentration at 2 h", "unitsLabel": "ng/mL", "result": 3090}

====

assay: 14-day oral gavage toxicokinetic study in rats; format: in vivo; conditions: both sexes, rat, plasma, po, 2 mg/kg, Mean Compound 1 Plasma Concentration, rats, oral 2 mg/kg, Day 14, 12 h, Overall

{"smilesNotation": "CN1CCN(c2ccc(Nc3ncc4cc5n(c4n3)C3(CCCCC3)CNC5=O)nc2)CC1", "concentration at 12 h": "51.9 ng/mL"}

====

test: 14-day oral gavage toxicokinetic study in rats; type: in vivo; details: both sexes, rat, plasma, po, 30 mg/kg, Mean Compound 1 Plasma Concentration, rats, oral 30 mg/kg, Day 14, 2 h, Overall

{"molecule": "CN1CCN(c2ccc(Nc3ncc4cc5n(c4n3)C3(CCCCC3)CNC5=O)nc2)CC1 [Compound 1]", "unitsLabel": "ng/mL", "concentration at 2 h": 1800}

====

assay: 14-day oral gavage toxicokinetic study in rats; type: in vivo; details: female, rat, plasma, po, 5 mg/kg, Mean Compound 1 Plasma Concentration, rats, oral 5 mg/kg, Day 14, […], Female
assayReadout: concentration at […] (ng/mL)

{"smilesNotation": "CN1CCN(c2ccc(Nc3ncc4cc5n(c4n3)C3(CCCCC3)CNC5=O)nc2)CC1", "unitsLabel": "ng/mL", "result": 70.7}

====

experiment: Single escalating dose IV infusion pharmacokinetics in healthy volunteers (noncompartmental); format: in vivo, human; conditions: both sexes, human, plasma, iv, 12 mg/m^2, Compound 1 Concentration, Cohort 2, 12 mg/m^2 IV; Time 0.50 h; r7-9=Subjects 1-3,r11=Mean,r13=Min,r14=Median,r15=Max,r17=Geometric Mean
assayReadout: concentration at 0.5 h (ng/mL)

{"smilesNotation": "CN1CCN(c2ccc(Nc3ncc4cc5n(c4n3)C3(CCCCC3)CNC5=O)nc2)CC1", "result": 102}

====

Assay: Compound 1 PK dosed Days 1-5 with topotecan
Type: in vivo, human
Conditions: human, plasma, intravenous, 200 mg/m^2 with Topotecan 1.25 mg/m^2 (Cohort 2), Day 1, Geo. Mean; read-out: AUCinf
Description: Analysis of plasma concentration versus time data for calculation of standard pharmacokinetic (PK) parameters following intravenous infusion administration was conducted using Phoenix WinNonlin version 6.3 using a nominal infusion duration and scheduled blood sampling times.

{"smilesNotation": "CN1CCN(c2ccc(Nc3ncc4cc5n(c4n3)C3(CCCCC3)CNC5=O)nc2)CC1", "unitsLabel": "ng·h/mL", "AUC(0-inf)": 2490}

====

Test: 14-day oral gavage toxicokinetic study in rats
Assay type: in vivo
Details: both sexes, rat, plasma, po, 5 mg/kg, Mean Compound 1 Plasma Concentration, rats, oral 5 mg/kg, Day 1, 4 h, Overall
Experimental: Plasma was obtained from blood samples collected from rats in a composite sampling scheme, with 3 samples collected per sex, per dose, at each target collection time, as illustrated in Table 21 to Table 25. […] The following parameters were determined: […] A value of 0 ng/mL was assigned to all values below the lower limit of quantitation (BLQ, <10.0 ng/mL). […] CL: Clearance (L/h/kg), calculated as the dose divided by AUC(0-t). […] Cmax/Dose: Normalized Cmax, calculated as Cmax divided by total dose. […]
assayReadout: concentration at 4 h (ng/mL)

{"smilesNotation": "CN1CCN(c2ccc(Nc3ncc4cc5n(c4n3)C3(CCCCC3)CNC5=O)nc2)CC1", "unitsLabel": "ng/mL", "result": 445}

====

test: 14-day oral gavage toxicokinetic study in rats; type: in vivo; conditions: male, rat, plasma, po, 30 mg/kg, Mean Compound 1 Plasma Concentration, rats, oral 30 mg/kg, Day 14, 2 h, Male

{"smilesNotation": "CN1CCN(c2ccc(Nc3ncc4cc5n(c4n3)C3(CCCCC3)CNC5=O)nc2)CC1", "concentration at 2 h [ng/mL]": 1590}

====

Assay: 14-day oral gavage toxicokinetic study in rats
Type: in vivo
Details: female, rat, plasma, po, 15 mg/kg, oral 15 mg/kg, Study Day 14, Female
Experimental: Plasma was obtained from blood samples collected from rats in a composite sampling scheme, with 3 samples collected per sex, per dose, at each target collection time, as illustrated in Table 21 to Table 25. […] The following parameters were determined: […] A value of 0 ng/mL was assigned to all values below the lower limit of quantitation (BLQ, <10.0 ng/mL). […] CL: Clearance (L/h/kg), calculated as the dose divided by AUC(0-t). […] Cmax/Dose: Normalized Cmax, calculated as Cmax divided by total dose. […]
assayReadout: Tmax (h)

{"smilesNotation": "CN1CCN(c2ccc(Nc3ncc4cc5n(c4n3)C3(CCCCC3)CNC5=O)nc2)CC1", "result": 4}

Where do these numbers come from? They come from patent US20160220569A1.
